testDetails: Cytotoxicity against human U937 cells assessed as cell viability at 100 uM after 48 hrs by WST-1 assay
Type: cell-based, U-937
conditionLabel: read-out: Activity
reportedProperty: viability at 48 h, 100 µM (%)

[[record]]
molecule = "CC(c1cc2ccccc2s1)N(O)C(N)=O (configuration not stated) [ZILEUTON]"
reportedproperty = "viability at 48 h, 100 µM"
reportedrelation = "="
observedresult = 86.5

[[record]]
molecule = "CCCCCC(O)c1cccc(OCc2ccc3ccccc3n2)c1 (configuration not stated) [REV-5901]"
reportedproperty = "viability at 48 h, 100 µM"
reportedrelation = "<"
observedresult = 1


---

testDetails: Solubility of the compound in DMSO at RT
Assay type: physicochemical
Hi, to clarify the labels: condition met covers solubility from 20 mM upward, condition not met covers anything below 20 mM.

[[record]]
compoundsmiles = "COc1ccc(-c2sc(-c3ccc(Cl)cc3)nc2O)cc1"
classification = "condition met"

[[record]]
compoundsmiles = "COc1ccc(/C=C2/SC(c3cccc4ccccc34)=NC2=O)cc1"
classification = "condition not met"

[[record]]
compoundsmiles = "COc1ccc(/C=C2\\SC(c3ccc(C)cc3)=NC2=O)cc1"
classification = "condition not met"

[[record]]
compoundsmiles = "COc1ccc(Cc2sc(-c3ccc(C)cc3)nc2O)cc1"
classification = "condition met"

[[record]]
compoundsmiles = "COc1ccc(Cc2sc(-c3ccc(Cl)cc3)nc2O)cc1"
classification = "condition met"

[[record]]
compoundsmiles = "COc1ccc(-c2sc(-c3ccc(C)cc3)nc2O)cc1"
classification = "condition met"

[[record]]
compoundsmiles = "Cc1ccc(C2=NC(=O)/C(=C/c3ccc(O)cc3)S2)cc1"
classification = "condition met"

[[record]]
compoundsmiles = "Cc1ccc(C2=NC(=O)/C(=C/c3ccc(OCCN4CCOCC4)cc3)S2)cc1"
classification = "condition not met"

[[record]]
compoundsmiles = "Cc1ccc(C2=NC(=O)/C(=C/c3cccc(S(N)(=O)=O)c3)S2)cc1"
classification = "condition met"

[[record]]
compoundsmiles = "Cc1ccc(C2=NC(=O)/C(=C/c3ccc(N4CCOCC4)cc3)S2)cc1"
classification = "condition not met"

[[record]]
compoundsmiles = "Cc1ccc(C2=NC(=O)/C(=C/c3ccc(OC(=O)N4CCOCC4)cc3)S2)cc1"
classification = "condition not met"

[[record]]
compoundsmiles = "COc1ccc(/C=C2/SC(c3ccc(Cl)cc3)=NC2=O)cc1"
classification = "condition not met"


---

targetDesc: Polyunsaturated fatty acid 5-lipoxygenase (Homo sapiens, UniProt P09917)
testDetails: Inhibition of 5-LO in human PMNL S100 extract using arachidonic acid as substrate incubated for 15 mins prior to substrate addition measured after 10 mins by HPLC analysis
Mark each entry fulfilled if its IC50 sits below 200 nM, and not fulfilled for all others.

[[record]]
compoundsmiles = "Cc1ccc(-c2nc(O)c(C=C3CCCCC3)s2)cc1"
classification = "not fulfilled"

[[record]]
compoundsmiles = "Cc1ccc(C2=NC(=O)/C(=C/c3c[nH]c4ccccc34)S2)cc1"
classification = "not fulfilled"

[[record]]
compoundsmiles = "COc1ccc(/C=C/C=C2\\SC(c3ccc(C)cc3)=NC2=O)cc1"
classification = "not fulfilled"

[[record]]
compoundsmiles = "Cc1ccc(C2=NC(=O)/C(=C/c3[nH]cnc3C)S2)cc1"
classification = "not fulfilled"

[[record]]
compoundsmiles = "COc1ccc(-c2sc(-c3ccc(Cl)cc3)nc2O)cc1"
classification = "fulfilled"

[[record]]
compoundsmiles = "COc1ccc(/C=C2\\C=C(c3ccc(C)cc3)OC2=O)cc1"
classification = "not fulfilled"

[[record]]
compoundsmiles = "COc1ccc(/C=C2/SC(=S)N(c3ccc(C)cc3)C2=O)cc1"
classification = "not fulfilled"

[[record]]
compoundsmiles = "Cc1ccc(C2=NC(=O)/C(=C/c3ccc(N)cc3)S2)cc1"
classification = "not fulfilled"

[[record]]
compoundsmiles = "COc1ccc(Cc2sc(-c3ccc(Cl)cc3)nc2O)cc1"
classification = "fulfilled"

[[record]]
compoundsmiles = "Cc1ccc(C2=NC(=O)/C(=C/c3ccc(S(C)(=O)=O)cc3)S2)cc1"
classification = "fulfilled"

[[record]]
compoundsmiles = "COc1ccc(C(=C2SC(c3ccc(C)cc3)=NC2=O)c2ccc(OC)cc2)cc1"
classification = "not fulfilled"


---

targetDesc: Polyunsaturated fatty acid 5-lipoxygenase (Homo sapiens)
Sequence (P09917 whole entry): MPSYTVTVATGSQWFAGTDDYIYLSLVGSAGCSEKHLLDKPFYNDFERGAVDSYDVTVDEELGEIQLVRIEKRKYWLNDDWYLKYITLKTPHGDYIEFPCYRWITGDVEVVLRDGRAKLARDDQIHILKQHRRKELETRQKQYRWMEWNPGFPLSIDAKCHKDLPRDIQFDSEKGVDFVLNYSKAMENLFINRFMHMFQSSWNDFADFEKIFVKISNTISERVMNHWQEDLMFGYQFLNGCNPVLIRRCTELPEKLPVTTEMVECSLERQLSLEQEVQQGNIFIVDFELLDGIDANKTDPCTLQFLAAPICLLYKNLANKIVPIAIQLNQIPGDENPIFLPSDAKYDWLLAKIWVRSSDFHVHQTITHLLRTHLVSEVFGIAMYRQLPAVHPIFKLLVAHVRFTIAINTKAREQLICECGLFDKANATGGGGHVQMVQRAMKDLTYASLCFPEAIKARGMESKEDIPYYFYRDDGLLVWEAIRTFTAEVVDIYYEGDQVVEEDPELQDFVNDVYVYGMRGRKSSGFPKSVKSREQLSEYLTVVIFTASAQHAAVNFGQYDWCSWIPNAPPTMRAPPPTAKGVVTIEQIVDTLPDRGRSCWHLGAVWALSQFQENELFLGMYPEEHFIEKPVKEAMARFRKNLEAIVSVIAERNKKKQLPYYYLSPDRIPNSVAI
testDetails: Inhibition of 5-LO in human PMNL using arachidonic acid as substrate assessed as product formation incubated for 15 mins prior to substrate addition measured after 10 mins by HPLC analysis
pIC50: −log10 of the molar value.
Measured pIC50, listed per entry.
reportedProperty: pIC50

[[record]]
compound = "COc1ccc(/C=C2\\C=C(c3ccc(C)cc3)OC2=O)cc1"
reportedproperty = "pIC50"
reportedrelation = "<"
observedresult = 4.52

[[record]]
compound = "COc1ccc(/C=C2/SC(c3ccc(Cl)cc3)=NC2=O)cc1"
reportedproperty = "pIC50"
reportedrelation = "="
observedresult = 6.55

[[record]]
compound = "COc1ccc(NC2(OC)SC(c3ccc(C)cc3)=NC2=O)cc1 (stereo unspecified)"
reportedproperty = "pIC50"
reportedrelation = "<"
observedresult = 4.52

[[record]]
compound = "Cc1ccc(C2=NC(=O)/C(=C/c3ccc(OCC(=O)N4CCOCC4)cc3)S2)cc1"
reportedproperty = "pIC50"
reportedrelation = "="
observedresult = 5.78

[[record]]
compound = "COc1ccc(C(=C2SC(c3ccc(C)cc3)=NC2=O)c2ccc(OC)cc2)cc1"
reportedproperty = "pIC50"
reportedrelation = "="
observedresult = 5.07

[[record]]
compound = "COc1ccc(/C=C2\\S/C(=N/c3ccc(C)cc3)NC2=O)cc1"
reportedproperty = "pIC50"
reportedrelation = "="
observedresult = 5.54

[[record]]
compound = "COc1ccc(/C=C2\\N=C(c3ccc(C)cc3)OC2=O)cc1"
reportedproperty = "pIC50"
reportedrelation = "<"
observedresult = 4.52

[[record]]
compound = "Cc1ccc(C2=NC(=O)/C(=C/c3ccncc3)S2)cc1"
reportedproperty = "pIC50"
reportedrelation = "="
observedresult = 5.66

[[record]]
compound = "COC1CCC(=Cc2sc(-c3ccc(C)cc3)nc2O)CC1 (stereo unspecified)"
reportedproperty = "pIC50"
reportedrelation = "="
observedresult = 5.81

[[record]]
compound = "Cc1ccc(C2=NC(=O)/C(=C/c3ccc(N4CCOCC4)cc3)S2)cc1"
reportedproperty = "pIC50"
reportedrelation = "="
observedresult = 5.44

[[record]]
compound = "COc1ccc(/C=C2/SC(c3cccc4ccccc34)=NC2=O)cc1"
reportedproperty = "pIC50"
reportedrelation = "="
observedresult = 6.92


---

targetDesc: UniProt:P09917
testDetails: Inhibition of 5-LO in human PMNL S100 extract using arachidonic acid as substrate incubated for 15 mins prior to substrate addition measured after 10 mins by HPLC analysis
pIC50: −log10 of the molar value.
Hi, to clarify the labels: yes covers pIC50 from 6 upward, no covers anything below 6.

[[record]]
molecule = "Cc1ccc(C2=NC(=O)/C(=C/c3ccncc3)S2)cc1"
classification = "yes"

[[record]]
molecule = "COc1ccc(/C=C2\\SC(c3ccc[n+](C)c3)=NC2=O)cc1"
classification = "no"

[[record]]
molecule = "COc1ccc(/C=C2\\SC(c3ccc(C)cc3)N(C)C2=O)cc1 (centres undefined)"
classification = "no"

[[record]]
molecule = "COc1ccc(/C=C2\\SC(c3ccncc3)=NC2=O)cc1"
classification = "yes"

[[record]]
molecule = "COC1CCC(=Cc2sc(-c3ccc(C)cc3)nc2O)CC1 (centres undefined)"
classification = "yes"

[[record]]
molecule = "Cc1ccc(C2=NC(=O)/C(=C/c3ccc(O)cc3)S2)cc1"
classification = "yes"

[[record]]
molecule = "COc1ccc(NC2(OC)SC(c3ccc(C)cc3)=NC2=O)cc1 (centres undefined)"
classification = "no"

[[record]]
molecule = "Cc1ccc(C2=NC(=O)/C(=C/c3cccc(S(N)(=O)=O)c3)S2)cc1"
classification = "yes"

[[record]]
molecule = "COc1ccc(Cc2sc(-c3ccc(C)cc3)nc2O)cc1"
classification = "yes"

[[record]]
molecule = "COC(=O)c1ccc(/C=C2\\SC(c3ccc(C)cc3)=NC2=O)cc1"
classification = "yes"

[[record]]
molecule = "Cc1ccc(C2=NC(=O)/C(=C/c3ccc(OCCN4CCOCC4)cc3)S2)cc1"
classification = "yes"

[[record]]
molecule = "Cc1ccc(C2=NC(=O)/C(=C/c3cccnc3)S2)cc1"
classification = "yes"

[[record]]
molecule = "COC(=O)/C=C/c1ccc(/C=C2\\SC(c3ccc(C)cc3)=NC2=O)cc1"
classification = "yes"

[[record]]
molecule = "COc1ccc(/C=C2\\C=C(c3ccc(C)cc3)NC2=O)cc1"
classification = "no"

[[record]]
molecule = "COc1ccc(/C=C2/SC(c3ccc(Cl)cc3)=NC2=O)cc1"
classification = "yes"

[[record]]
molecule = "COc1ccc(/C=C2\\SC(c3cnccn3)=NC2=O)cc1"
classification = "yes"

[[record]]
molecule = "Cc1ccc(C2=NC(=O)/C(=C/c3ncc[nH]3)S2)cc1"
classification = "no"

[[record]]
molecule = "CC(=O)c1ccc(/C=C2\\SC(c3ccc(C)cc3)=NC2=O)cc1"
classification = "yes"

[[record]]
molecule = "COc1ccc(-c2sc(-c3ccc(C)cc3)nc2O)cc1"
classification = "yes"

[[record]]
molecule = "COc1ccc(/C=C2\\OC(c3ccc(C)cc3)=NC2=O)cc1"
classification = "no"

[[record]]
molecule = "Cc1ccc(C2=NC(=O)/C(=C/c3ccc(OC(=O)N4CCOCC4)cc3)S2)cc1"
classification = "yes"

[[record]]
molecule = "COc1ccc(/C=C2\\S/C(=N/c3ccc(C)cc3)NC2=O)cc1"
classification = "no"

[[record]]
molecule = "COc1ccc(/C=C2\\N=C(c3ccc(C)cc3)OC2=O)cc1"
classification = "no"

[[record]]
molecule = "Cc1ccc(C2=NC(=O)/C(=C/C34CC5CC(CC(C5)C3)C4)S2)cc1"
classification = "yes"

[[record]]
molecule = "COc1ccc(/C=C2/SC(c3cccc4ccccc34)=NC2=O)cc1"
classification = "yes"

[[record]]
molecule = "COc1ccc(/N=C2\\SC(c3ccc(C)cc3)=NC2=O)cc1"
classification = "no"

[[record]]
molecule = "Cc1ccc(C2=NC(=O)/C(=C/c3ccc[nH]3)S2)cc1"
classification = "no"

[[record]]
molecule = "COc1ccc(-c2sc(-c3ccc(C)cc3)nc2C)cc1"
classification = "no"

[[record]]
molecule = "COc1ccc(/C=C2\\N=C(c3ccc(C)cc3)NC2=O)cc1"
classification = "no"

